Subject of test: Acyl-protein thioesterase 2 (Mus musculus)
Protocol summary: serine hydrolase off-target inhibition in mouse brain, late-stage follow-up, selectivity assay for DAGLb inhibitor project, biochemical, gel-based competitive ABPP, mouse brain membrane, set 3 (AID 602321)
Cond: gel-based competitive ABPP fluorescence, LYPLA2, at 10 µM, hits give high values
The source made the active and inactive calls. How the calls were made is not given here.
# Lookup of reported inhibition keyed by entry

Worked examples follow.
O=C(N1CCCCC1Cc1ccccc1)n1cc(-c2ccc(-c3cccc(CO)c3)cc2)nn1 (centres undefined) :: 0% (inactive)
O=C(N1CCCCC1c1ccccc1)n1cc(-c2ccc(-c3ccc(CO)cc3)cc2)nn1 (centres undefined) :: 90%
O=C(c1ccc(-c2ccc(-c3cn(C(=O)N4CCCCC4Cc4ccccc4)nn3)cc2)cc1)N1CCCCC1 (centres undefined) :: 0% (inactive)
O=C(O)c1cccc(-c2ccc(-c3cn(C(=O)N4CCCCC4CCc4ccccc4)nn3)cc2)c1 (centres undefined) :: 25% (inactive)
O=C(O)c1cccc(-c2ccc(-c3cn(C(=O)N4CCCCC4c4ccccc4)nn3)cc2)c1 (centres undefined) :: 100%

Can you share its inhibition? I mean this compound: O=C(N1CCCCC1c1ccccc1)n1cc(-c2ccc(-c3ccccc3CO)cc2)nn1 (centres undefined)
100%

Can you share its inhibition? I mean this compound: O=C(c1ccc(-c2ccc(-c3cn(C(=O)N4CCCCC4c4ccccc4)nn3)cc2)cc1)N1CCCCC1 (centres undefined)
90%

Can you share its inhibition? I mean this compound: NC(=O)c1ccc(-c2ccc(-c3cn(C(=O)N4CCCCC4c4ccccc4)nn3)cc2)cc1 (centres undefined)
90%

Can you share its inhibition? I mean this compound: O=C(O)c1ccc(-c2ccc(-c3cn(C(=O)N4CCCCC4CCc4ccccc4)nn3)cc2)cc1 (centres undefined)
15% (inactive)
